experiment: Hedgehog pathway signaling inhibitors, primary screen, luminescence, Shh-LIGHT2 cells, Gli-luciferase (AID 2313); conditions: Shh-LIGHT2 Gli-luciferase reporter, 30 h;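 further: pathway switched on by Shh-conditioned medium diluted 1 in 25 in low serum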
Hit rate of the full screen: of about 22,000 compounds, about 460 (2.1%) were called active. Another 2% or so got no clear call; they are omitted.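 How the source made its calls: active means mean inhibition across valid replicates above about 65% (limit read from the data); inconclusive means mean under the limit, yet half or more replicates past it; inactive means the rest.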 This is one part of a sample in which actives are shown more often than they occur.
Allowed answers: active, inactive

Tell me the assay call for CC=C1CN2C3CC1C1(C(=O)OC)C2CC2(c4ccccc4N(C)C32)C1O (centres undefined) please.
inactive

I'd appreciate the recorded outcome for CC(C)c1c(CN(C)C(C)Cc2ccccc2)n(C)n(-c2ccccc2)c1=O (centres undefined) from this test.
inactive

Dear colleague, could you share the recorded outcome for O=C(c1ccccc1)C12CN3CN(CN(C3)C1)C2 when you have a moment?
inactive

State the result this test recorded for C[C@H]1CCC/C=C/C2C[C@H](O)C[C@H]2[C@H](O)/C=C\C(=O)O1 (some centres undefined) .
active

I would be grateful if you could indicate the recorded call for CCCCC/C=C\C/C=C\C/C=C\C/C=C\CCCCCC(=O)NCCO .
inactive

Look up the recorded call for CC(C)[C@@]1(NC(=O)[C@@H]2CC3c4cccc5[nH]cc(c45)C[C@H]3N(C)C2)O[C@@]2(O)[C@@H]3CCCN3C(=O)[C@H](Cc3ccccc3)N2C1=O (some centres undefined) in this test.
inactive

What did the test return for C=CC(C)(C)c1cc2cc3c(cc2oc1=O)O[C@H](C(C)(C)O)C3 ?
inactive

What was the test verdict on COC(/C=C/CC/C=C/C(=O)O)C(O)C(C)C(O)/C(C)=C/C(C)C(=O)CCCC1CC(=O)NC(=O)C1 (centres undefined) ?
inactive

Which outcome was assigned to CN(C)C(=O)Oc1cc(OC(=O)N(C)C)cc(C(O)CNC(C)(C)C)c1 (centres undefined) in this test?
inactive
